Biological target: SARS-CoV-2 wild-type spike (S) protein (SARS-CoV-2, WT (MN908947), UniProt P0DTC2)
METRIC_NAME: binding result

>  <BINDER>
XGv297 (antibody, V domains shown) VH: QVQLVQSGAEVKKPGASVKVSCRTSGYTFTAYYIHWVRQVPGQGLEWMGIINPSGGGASYAQTFQGRVSLTRDTSTRTVYMDLSSLISEDTAVYYCARAEGTHWLGWFDPWGQGTLVTVSS VL: QSVLTQPPSASGTPGQRVTISCSGSSSNIASNSVYWYQQLPGTAPKLLIYRNNQRPSGVPDRFSGSTSGTSASLAISGLRSEDEADYYCAAWDDNLSGSGWVFGGGTKLTVL

>  <EXPERIMENTAL_RESULT>
binds

$$$$
>  <BINDER>
XGv296 (antibody, V domains shown) VH: QVQLVQSGAEVKKPGASVKISCKASGYTFTDHYVHWVRQAPGQGLEWMAIVNPSDGSTSYAQKFQGRVTMTSDTSTTTIYMELSSLRSGDTAVYYCARAEGSSWLGWFDPWGQGTQVTVSS VL: QSVLTQPPSASGTPGQRVTISCSGSSSNIGGHYVYWYQQFPGTAPKLLIYRSNQRPSGVPDRFSGSKSGTSASLAISGLRSEDEADYFCAAWDDGLRGSGWVFGGGTTLTV

>  <EXPERIMENTAL_RESULT>
binds

$$$$
>  <BINDER>
XGv051 (antibody, V domains shown) VH: QVQLVQSGAEVKKPGSSVKVSCKASGGTFSNYALSWVRQAPGQGLEWMGGIIPIFGTTNYAQKFQGRVTITADESTSTAYMELSSLRSEDTAVYYCARLDGYSFGHDRYYQDGMDDWGPGTTVTVSS VL: DIQMTQSPSSLSASVGDRVTITCRASQAIRNDLGWYQQKPGKAPKCLIYAASTLQSGVPSRFSGSGSGTEFTLTISSLQPEDFATYFCLQQNIYPRTFGQGTKVEI

>  <EXPERIMENTAL_RESULT>
binds

$$$$
